Listed here: items and their measured C0.
Test: IV pharmacokinetics
Type: in vivo, Sprague Dawley rats
Conditions: Sprague-Dawley, rat, in vivo, iv, 2 mg/kg, normal saline (* in 5% NMP, 5% Solutol HS, 90% normal saline), read-out: C0
Report as a plain number; the unit ng/mL is understood.

[[record]]
compound = "CC1CCC2(CC1)CN(CC(N)=O)C2=O (centres unmarked)"
outcome_measure = "C0"
recorded_result = 658


q: Param item = CC1CCC2(CC1)CN([C@H](C(N)=O)[C@@H](C)O)C2=O (mixture of isomers) ; retrieve measured C0.
a: 3100

q: Which C0 is reported for this compound? CC1CCC2(CC1)CN(C(CO)C(=O)O)C2=O (single isomer, unassigned)
a: 9440

q: Quick check: C0 of C[C@@H](O)[C@@H](C(N)=O)N1CC2(CCCCC2)C1=O ?
a: 608

q: I would be grateful if you could share the reported C0 for CC1CCC2(CC1)CNC2=O (racemic) [Compound AD, 7-methyl-2-azaspiro[3.5]nonan-1-one] .
a: 2060

q: Entry under review: O=C1NCC12CCC(OCc1ccccc1)CC2 (single isomer, unassigned) [AI, 7-(benzyloxy)-2-azaspiro[3.5]nonan-1-one] . Reported C0?
a: 4330

q: For the compound shown here, O=C1NCC12CCCCC2 [Compound AB, 2-azaspiro[3.5]nonan-1-one] , give the reported C0.
a: 2050

q: Any idea what C0 was measured for NC(=O)C(CO)N1CC2(CCCCC2)C1=O (single isomer, unassigned) ?
a: 2760

----------
// reported Vd per item
Experiment: IV pharmacokinetics
Type: in vivo, Sprague Dawley rats
Settings: Sprague-Dawley, rat, in vivo, iv, 2 mg/kg, normal saline (* in 5% NMP, 5% Solutol HS, 90% normal saline), read-out: Vss
Your answer is read as L/kg, so omit the unit and give the number.

Study these solved cases before continuing.
[[record]]
compound = "C[C@@H](O)[C@@H](C(N)=O)N1CC2(CCCCC2)C1=O"
recorded_result = 2.23

[[record]]
compound = "CC1CCC2(CC1)CN(CC(N)=O)C2=O (centres unmarked)"
recorded_result = 2.67

[[record]]
compound = "CC1CCC2(CC1)CN(C(CO)C(=O)O)C2=O (single isomer, unassigned)"
recorded_result = 1.16


q: # Vd lookup, item CC1CCC2(CC1)CN(C(CCC(N)=O)C(N)=O)C2=O (single isomer, unassigned)
a: 1.52

q: Please give the measured Vd for this compound: C[C@@H](O)[C@H](NC1CCC2(CC1)CNC2=O)C(N)=O (single isomer, unassigned)
a: 1.22

----------
Assay: IV pharmacokinetics
Type: in vivo, Sprague Dawley rats
Conditions: Sprague-Dawley, rat, in vivo, iv, 2 mg/kg, normal saline (* in 5% NMP, 5% Solutol HS, 90% normal saline)
Entries and their AUC(0-t)
Lab book: enter the figure in µg·h/mL, no units written.

These solved cases illustrate the format of a correct answer.
[[record]]
compound = "C[C@@H](O)[C@@H](C(N)=O)N1CC2(CCCCC2)C1=O"
outcome_measure = "AUC(0-t)"
recorded_result = 0.397

[[record]]
compound = "C[C@@H](O)[C@H](NC1CCC2(CC1)CNC2=O)C(N)=O (single isomer, unassigned)"
outcome_measure = "AUC(0-t)"
recorded_result = 2.29

[[record]]
compound = "O=C1NCC12CCC(O)CC2 (stereo not shown) [AL, 7-hydroxy-2-azaspiro[3.5]nonan-1-one]"
outcome_measure = "AUC(0-t)"
recorded_result = 6.22

[[record]]
compound = "O=C1NCC12CCCCC2 [Compound AB, 2-azaspiro[3.5]nonan-1-one]"
outcome_measure = "AUC(0-t)"
recorded_result = 2.65

[[record]]
compound = "CC1CCC2(CC1)CN(C(CO)C(=O)O)C2=O (single isomer, unassigned)"
outcome_measure = "AUC(0-t)"
recorded_result = 1.76

[[record]]
compound = "NC(=O)C(CO)N1CC2(CCCCC2)C1=O (single isomer, unassigned)"
outcome_measure = "AUC(0-t)"
recorded_result = 2.09


Could you now look at the following compound, please?
q: Dear colleague, I am looking for the recorded AUC(0-t) of the following compound: CC1CCC2(CC1)CNC2=O (racemic) [Compound AD, 7-methyl-2-azaspiro[3.5]nonan-1-one]
a: 1.36
